assay_system: CDK2/Cyclin A2 (Homo sapiens, UniProt P24941)
procedure_summary: Inhibition of human CDK2/Cyclin A2 using PKTPKKAKKL as substrate by PK/LDH spectrophotometric analysis
Format: protein-complex assay
quantity_name: IC50 (µM)

P. Nc1nc(Nc2ccc(S(N)(=O)=O)cc2)sc1C(=O)C1CCCCC1
Q. Nc1nc(NC2CCNCC2)sc1C(=O)c1cccnc1
R. C=C(C)CNc1nc(N)c(C(=O)c2ccccc2)s1
S. Nc1nc(Nc2ccc(S(N)(=O)=O)cc2)sc1C(=O)c1ccc2ccccc2c1
T. CC(C)Nc1nc(N)c(C(=O)c2ccccc2)s1
Query: Rank the listed molecules, smallest IC50 first and largest last. Respond with an ordered listing of the labels, as requested.
Reply: T, P, R, Q, S
(T: 2 µM, P: 3.5 µM, R: 15 µM, Q: 43 µM, S: 82 µM)

A. Cc1ccccc1C(=O)c1sc(Nc2ccc(S(N)(=O)=O)cc2)nc1N
B. Nc1nc(Nc2ccccc2)sc1C(=O)c1cccc(Cl)c1
C. C=CCNc1nc(N)c(C(=O)c2cccnc2)s1
Query: Reorder: IC50, max to min. The reply should contain the labels ordered as requested.
Reply: B, A, C
(B: 99 µM, A: 4.8 µM, C: 3.1 µM)

Measured values drawn from ChEMBL document CHEMBL2375244 for this set.
